Provide the reported log10 of EC50 of each item.
# study-target: T1, human SLC34A2 (human, UniProt O95436 1-690)
# T1 construct: whole, on cells; also called human solute carrier 34 A2; NaPi2b
# T1 sequence (looked up): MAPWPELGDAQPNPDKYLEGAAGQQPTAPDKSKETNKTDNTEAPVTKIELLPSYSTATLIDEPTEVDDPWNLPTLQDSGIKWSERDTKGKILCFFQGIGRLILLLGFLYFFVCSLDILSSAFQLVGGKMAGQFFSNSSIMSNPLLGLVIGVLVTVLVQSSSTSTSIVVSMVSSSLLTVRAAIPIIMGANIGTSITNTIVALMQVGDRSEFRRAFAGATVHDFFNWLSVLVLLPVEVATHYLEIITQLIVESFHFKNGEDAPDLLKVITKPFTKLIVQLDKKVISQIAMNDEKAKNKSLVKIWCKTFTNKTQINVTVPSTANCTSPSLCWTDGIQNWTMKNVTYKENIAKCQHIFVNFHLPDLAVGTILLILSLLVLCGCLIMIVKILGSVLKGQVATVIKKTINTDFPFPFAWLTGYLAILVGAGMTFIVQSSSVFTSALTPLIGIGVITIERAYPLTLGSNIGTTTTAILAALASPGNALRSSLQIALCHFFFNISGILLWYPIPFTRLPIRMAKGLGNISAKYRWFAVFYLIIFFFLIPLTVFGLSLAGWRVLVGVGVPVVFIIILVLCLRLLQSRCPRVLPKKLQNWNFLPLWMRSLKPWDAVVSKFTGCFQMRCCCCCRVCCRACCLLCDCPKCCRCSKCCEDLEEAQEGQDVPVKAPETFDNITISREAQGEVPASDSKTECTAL
# test-summary: FACS, OVCAR3 cells
Heads up: the numbers are on a log10 scale; they represent EC50 in µM.

63A11D5B4.p1.z15 hIgG1 (antibody, V domains shown, humanized hIgG1) VH: QVQLQQSGAEVVKPGASVKMSCKTSGYTFITYNMHWVKQAPGQGREWIGAIYPGSGDTSYNQKFKGRATLTADKSTSTAYMELSSLRSEDTAVYYCSISTIITTGAVDYWGQGTSVTVSS VL: DIQMTQSPSSLSTSVGDRVTITCKASQDVGTAVAWYQQKPGQSPKLLIYWTSTRHTGVPDRFSGSGSGTDFTLIIRSLQPEDVATYFCQQYSRIPLTFGGGTKVEIK: -2.03
63A11D5B4.p1.z9 hIgG1 (antibody, V domains shown, humanized hIgG1) VH: QVQLVQSGAEVVKPGASVKMSCKTSGYTFITYNMHWVRQAPGQGLEWIGAIYPGSGDTSYNQKFKGRVTLTADKSTSTAYMELSSLRSEDTAVYYCSISTIITTGAVDYWGQGTLVTVSS VL: DIQMTQSPSSLSASVGDRVTITCKASQDVGTAVAWYQQKPGKVPKLLIYWTSTRHTGVPSRFSGSGSGTDFTLTISSLQPEDVATYYCQQYSRIPLTFGGGTKVEIK: -2.04

For each of the binders below, state log10 of EC50.
1. 63A11D5B4.p1.z14 hIgG1 (antibody, V domains shown, humanized hIgG1) VH: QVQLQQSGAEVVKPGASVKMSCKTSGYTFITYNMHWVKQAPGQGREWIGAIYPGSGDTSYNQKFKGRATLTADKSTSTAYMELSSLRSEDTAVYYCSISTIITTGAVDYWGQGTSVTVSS VL: DIQMTQSPSSLSTSVGDRVTITCKASQDVGTAVAWYQQKPGKSPKLLIYWTSTRHTGVPSRFSGSGSGTDFTLIISSLQPEDVATYYCQQYSRIPLTFGGGTKVEIK
2. 63A11D5B4.p1.z7 hIgG1 (antibody, V domains shown, humanized hIgG1) VH: QVQLVQSGAEVKKPGASVKVSCKTSGYTFITYNMHWVRQAPGQGLEWIGAIYPGSGDTSYNQKFKGRVTMTADTSTSTVYMELSSLRSEDTAVYYCSISTIITTGAVDYWGQGTLVTVSS VL: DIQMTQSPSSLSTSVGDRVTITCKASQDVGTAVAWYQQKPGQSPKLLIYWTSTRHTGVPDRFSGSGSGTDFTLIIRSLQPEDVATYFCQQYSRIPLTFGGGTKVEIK
3. 63A11D5B4.p1.z2 hIgG1 (antibody, V domains shown, humanized hIgG1) VH: QVQLVQSGAEVKKPGASVKVSCKASGYTFITYNMHWVRQAPGQGLEWMGAIYPGSGDTSYNQKFKGRVTMTRDTSTSTVYMELSSLRSEDTAVYYCASSTIITTGAVDYWGQGTLVTVSS VL: DIQMTQSPSSLSTSVGDRVTITCKASQDVGTAVAWYQQKPGKSPKLLIYWTSTRHTGVPSRFSGSGSGTDFTLIISSLQPEDVATYYCQQYSRIPLTFGGGTKVEIK
4. 63A11D5B4.p1.z8 hIgG1 (antibody, V domains shown, humanized hIgG1) VH: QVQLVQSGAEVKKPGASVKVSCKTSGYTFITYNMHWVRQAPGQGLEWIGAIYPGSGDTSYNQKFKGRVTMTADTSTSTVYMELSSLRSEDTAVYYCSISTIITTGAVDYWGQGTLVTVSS VL: DIVMTQSPSSLSTSVGDRVTITCKASQDVGTAVAWYQQKPGQSPKLLIYWTSTRHTGVPDRFTGSGSGTDFTLIIRSLQPEDVATYFCQQYSRIPLTFGSGTKVEIK
5. 63A11D5B4 VH_P1/VL hIgG1 (antibody, V domains shown, PTM-derisked chimeric, hIgG1; that P1 is the SG version follows from the humanized .p1 chains; also called 63A11D5B4.p1 hIgG1) VH: QVQLQQPGAELVKPGASVKMSCRTSGYTFITYNMHWVKQTPGQGREWIGAIYPGSGDTSYNQKFKGKATLTADKSSSTAYMQLNSLTSEDSAVYYCSISTIITTGAVDYWGQGTSVTVAS VL: DIVMTQSHKFMSTSVGDRVSITCKASQDVGTAVAWYQQKAGQSPKLLIYWTSTRHTGVPDRFTGSGSGTDFTLIIRSLQSEDLADYFCQQYSRIPLTFGSGTKLEIK
6. 63A11D5B4.p1.z1 hIgG1 (antibody, V domains shown, humanized hIgG1) VH: QVQLVQSGAEVKKPGASVKVSCKASGYTFITYNMHWVRQAPGQGLEWMGAIYPGSGDTSYNQKFKGRVTMTRDTSTSTVYMELSSLRSEDTAVYYCASSTIITTGAVDYWGQGTLVTVSS VL: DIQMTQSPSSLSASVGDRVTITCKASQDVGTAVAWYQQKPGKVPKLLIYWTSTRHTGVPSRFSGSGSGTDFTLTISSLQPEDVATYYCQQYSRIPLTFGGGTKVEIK
7. 63A11D5B4.p1.z12 hIgG1 (antibody, V domains shown, humanized hIgG1) VH: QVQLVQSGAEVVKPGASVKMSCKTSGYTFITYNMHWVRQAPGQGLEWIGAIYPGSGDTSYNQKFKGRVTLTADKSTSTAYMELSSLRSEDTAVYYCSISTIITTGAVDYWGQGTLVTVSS VL: DIVMTQSPSSLSTSVGDRVTITCKASQDVGTAVAWYQQKPGQSPKLLIYWTSTRHTGVPDRFTGSGSGTDFTLIIRSLQPEDVATYFCQQYSRIPLTFGSGTKVEIK
8. 63A11D5B4.p1.z3 hIgG1 (antibody, V domains shown, humanized hIgG1) VH: QVQLVQSGAEVKKPGASVKVSCKASGYTFITYNMHWVRQAPGQGLEWMGAIYPGSGDTSYNQKFKGRVTMTRDTSTSTVYMELSSLRSEDTAVYYCASSTIITTGAVDYWGQGTLVTVSS VL: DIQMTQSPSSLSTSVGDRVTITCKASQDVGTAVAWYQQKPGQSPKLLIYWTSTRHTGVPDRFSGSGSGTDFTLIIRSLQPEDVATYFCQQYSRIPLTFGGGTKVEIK

RESULT:
[-1.79, -1.21, -1.69, -1.85, -2.39, -1.71, -1.93, -1.75]
